# TESTED SYSTEM: human TLR7 (Homo sapiens)
# PROCEDURE TEXT: TLR7 inhibition reporter assay (HEK-Blue cells, SEAP reporter, gardiquimod stimulation)
# EXPERIMENTAL CONDITIONS: HEK-Blue cells overexpressing human TLR7, gardiquimod 7.5 μM
Listing of recorded pIC50 by entry.
Field pIC50 (float): negative decimal logarithm of the concentration in molar.

# example entries with known answers
1. CCNC(=O)N1CCC(c2ccc3[nH]c(-c4ccc(OC)c(OC)c4)c(CC(F)(F)F)c3c2)CC1 [Example 356]
6.21
2. COc1ccc(-c2[nH]c3ccc(C4CCN(C(=O)CN5CCC[C@H](C(=O)N6C(C)CCC6C)C5)CC4)cc3c2C(C)C)cc1OC (some centres unmarked) [Example 300]
7.07
3. COc1ccc(-c2[nH]c3ccc(C4CCN(C(C)CO)CC4)cc3c2C)cc1OC (centres unmarked) [Example 43]
5.94

Query block: Return reported pIC50; argument: COc1ccc(-c2[nH]c3ccc(C4CCN(C5CCNC5)CC4)cc3c2C)cc1OC (centres unmarked) [Example 104]
Result block: 5.66

Query block: Return reported pIC50; argument: COc1ccc(-c2[nH]c3ccc(C4CCN(C(=O)C[C@@H](C)O)CC4)cc3c2CC(F)(F)F)cc1OC [Example 353]
Result block: 6.64

Query block: Return reported pIC50; argument: COc1ccc(-c2[nH]c3ccc(C4CCN(C(=O)CCC(=O)N(C)C)CC4)cc3c2CC(F)(F)F)cc1OC [Example 346]
Result block: 6.67

Query block: Return reported pIC50; argument: COc1ccc(-c2[nH]c3ccc(C4CCN(C5CCCN(CC(C)C)CC5)CC4)cc3c2C)cc1OC (centres unmarked) [Example 95]
Result block: 6.09

Query block: Return reported pIC50; argument: COc1ccc(-c2[nH]c3ccc(C4CCN(C(=O)[C@@H]5CCCN5C(C)=O)CC4)cc3c2CC(F)(F)F)cc1OC [Example 336]
Result block: 6.44

Query block: Return reported pIC50; argument: COc1ccc(-c2[nH]c3ccc(C4CCN(C5CCN(C(C)C)CC5)CC4)cc3c2C)cc1OC [Example 10]
Result block: 6.22

Query block: Return reported pIC50; argument: CCC(CC)CN1CCC(c2ccc3[nH]c(-c4ccc(OC)c(OC)c4)c(C(C)C)c3c2)CC1 [Example 265]
Result block: 6.74

Query block: Return reported pIC50; argument: COc1ccc(-c2[nH]c3ccc(C4CCN(C(=O)CNC5CCC(O)CC5)CC4)cc3c2C(C)C)cc1OC (centres unmarked) [Example 246]
Result block: 7.96

---

Listing of recorded pIC50 by entry.
# TESTED SYSTEM: human TLR9 (Homo sapiens)
# Sequence (Q9NR96 26-1032): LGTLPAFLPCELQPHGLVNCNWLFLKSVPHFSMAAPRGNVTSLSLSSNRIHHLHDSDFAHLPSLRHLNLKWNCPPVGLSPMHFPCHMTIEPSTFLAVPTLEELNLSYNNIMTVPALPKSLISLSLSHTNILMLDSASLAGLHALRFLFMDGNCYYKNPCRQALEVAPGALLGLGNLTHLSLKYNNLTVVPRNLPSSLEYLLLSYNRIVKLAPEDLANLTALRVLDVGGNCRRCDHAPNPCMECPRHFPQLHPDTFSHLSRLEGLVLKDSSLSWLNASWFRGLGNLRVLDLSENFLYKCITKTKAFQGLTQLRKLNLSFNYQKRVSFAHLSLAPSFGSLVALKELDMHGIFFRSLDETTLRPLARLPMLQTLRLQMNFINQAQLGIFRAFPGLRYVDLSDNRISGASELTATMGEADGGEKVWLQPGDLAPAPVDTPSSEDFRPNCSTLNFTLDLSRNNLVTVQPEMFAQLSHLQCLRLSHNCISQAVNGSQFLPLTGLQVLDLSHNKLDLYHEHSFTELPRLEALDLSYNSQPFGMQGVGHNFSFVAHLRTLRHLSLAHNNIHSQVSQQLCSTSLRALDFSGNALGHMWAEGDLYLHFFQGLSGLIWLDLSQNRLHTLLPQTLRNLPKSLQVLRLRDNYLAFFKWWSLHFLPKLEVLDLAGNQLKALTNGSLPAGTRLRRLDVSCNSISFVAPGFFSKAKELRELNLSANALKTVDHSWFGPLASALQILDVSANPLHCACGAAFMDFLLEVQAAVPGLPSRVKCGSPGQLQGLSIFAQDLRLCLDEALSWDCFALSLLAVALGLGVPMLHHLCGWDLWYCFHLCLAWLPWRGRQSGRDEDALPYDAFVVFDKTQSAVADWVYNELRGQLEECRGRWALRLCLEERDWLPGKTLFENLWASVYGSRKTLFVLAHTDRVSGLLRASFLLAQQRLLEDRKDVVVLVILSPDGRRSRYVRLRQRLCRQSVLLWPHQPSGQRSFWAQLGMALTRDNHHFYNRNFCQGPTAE
# PROCEDURE TEXT: TLR9 inhibition reporter assay (HEK-Blue cells, SEAP reporter, ODN2006 stimulation)
# EXPERIMENTAL CONDITIONS: HEK-Blue cells overexpressing human TLR9, ODN2006 5 nM
Field pIC50 (float): negative decimal logarithm of the concentration in molar.

# example entries with known answers
1) COc1ccc(-c2[nH]c3ccc(C4CCN(C5CCCN(CC(C)C)C5)CC4)cc3c2C)cc1OC (stereo not shown) [Example 417]
6.25
2) COc1ccc(-c2[nH]c3ccc(C4CCN(C(=O)CN5CCCC(C(=O)N(C)C)C5)CC4)cc3c2CC(F)(F)F)cc1OC (stereo not shown)
5.53
3) COc1ccc(-c2[nH]c3ccc(C4CCN(C(=O)CN5CCCC(C(=O)NC6CCN(C(C)C)CC6)C5)CC4)cc3c2C(C)C)cc1OC (single isomer, unassigned) [Example 280]
6.38
4) CCNCC(=O)N1CCC(c2ccc3[nH]c(-c4ccc(OC)c(OC)c4)c(C)c3c2)CC1
6.05
5) COc1ccc(-c2[nH]c3ccc(C4CCN(C(=O)CN5CCCN(C(C)=O)CC5)CC4)cc3c2C(C)C)cc1OC
5.16

Query block: Return reported pIC50; argument: COc1ccc(-c2[nH]c3ccc(C4CCN(C5CCN(C(C)=O)CC5)CC4)cc3c2C)cc1OC
Result block: 6.19

Query block: Return reported pIC50; argument: CCc1c(-c2ccc(OC)c(OC)c2)[nH]c2ccc(C3CCN(C4CCN(Cc5ccsc5)CC4)CC3)cc12
Result block: 6.88

---

# TESTED SYSTEM: human TLR7 (Homo sapiens, UniProt Q9NYK1)
# Sequence (Q9NYK1 27-1049): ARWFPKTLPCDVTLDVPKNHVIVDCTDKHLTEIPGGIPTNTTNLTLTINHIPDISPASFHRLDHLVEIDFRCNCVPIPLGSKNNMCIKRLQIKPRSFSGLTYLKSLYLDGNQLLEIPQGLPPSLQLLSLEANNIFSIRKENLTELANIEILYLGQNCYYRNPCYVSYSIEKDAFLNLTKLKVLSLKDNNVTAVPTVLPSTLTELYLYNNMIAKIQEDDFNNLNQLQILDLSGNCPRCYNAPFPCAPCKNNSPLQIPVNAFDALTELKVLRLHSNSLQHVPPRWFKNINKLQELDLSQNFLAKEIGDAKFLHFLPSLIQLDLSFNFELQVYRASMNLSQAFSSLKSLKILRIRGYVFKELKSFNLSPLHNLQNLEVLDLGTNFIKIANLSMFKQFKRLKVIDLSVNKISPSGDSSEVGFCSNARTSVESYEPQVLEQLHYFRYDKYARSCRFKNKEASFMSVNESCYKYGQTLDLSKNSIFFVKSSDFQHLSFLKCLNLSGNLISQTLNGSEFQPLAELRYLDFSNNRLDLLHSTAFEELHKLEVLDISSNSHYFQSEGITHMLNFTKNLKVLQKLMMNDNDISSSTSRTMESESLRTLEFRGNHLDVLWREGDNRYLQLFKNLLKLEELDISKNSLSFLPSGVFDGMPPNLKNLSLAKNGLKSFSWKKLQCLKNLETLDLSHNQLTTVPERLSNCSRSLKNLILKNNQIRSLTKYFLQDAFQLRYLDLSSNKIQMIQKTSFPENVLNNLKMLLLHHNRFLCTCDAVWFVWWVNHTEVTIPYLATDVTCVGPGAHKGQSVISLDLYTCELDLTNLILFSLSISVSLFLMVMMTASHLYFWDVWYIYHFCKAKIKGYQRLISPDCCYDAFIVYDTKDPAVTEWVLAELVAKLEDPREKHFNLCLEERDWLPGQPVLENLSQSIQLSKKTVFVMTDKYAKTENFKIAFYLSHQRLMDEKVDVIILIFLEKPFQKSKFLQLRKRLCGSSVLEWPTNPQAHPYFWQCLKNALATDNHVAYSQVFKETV
# PROCEDURE TEXT: TLR7 inhibition reporter assay (HEK-Blue cells, SEAP reporter, gardiquimod stimulation)
# EXPERIMENTAL CONDITIONS: HEK-Blue cells overexpressing human TLR7, gardiquimod 7.5 μM
pIC50: −log10 of the molar value.
Ranges used to classify pIC50: band A: < 6; band B: ≥ 6 and < 7; band C: ≥ 7

1. COc1ccc(-c2[nH]c3ccc(C4CCN(C(=O)CCCN(C)C)CC4)cc3c2CC(F)(F)F)cc1OC
band C
2. COc1ccc(-c2[nH]c3ccc(C4CCN(C(=O)CN5CCC[C@H](C(=O)N6CCN(C(C)C)CC6)C5)CC4)cc3c2C(C)C)cc1OC
band C
3. COc1ccc(-c2[nH]c3cc(C)c(C4CCN(C5CCN(C(C)C)CC5)CC4)cc3c2C(C)C)cc1OC
band A
4. CCC(C)CN1CCC(N2CCC(c3ccc4[nH]c(-c5ccc(OC)c(OC)c5)c(C)c4c3)CC2)CC1 (centres unmarked)
band B
5. COc1ccc(-c2[nH]c3ccc(C4CCN(CC5CCCCN5)CC4)cc3c2C)cc1OC (centres unmarked)
band A
6. COc1ccc(-c2[nH]c3ccc(C4CCN(C(=O)CN[C@@H](CO)CC(C)C)CC4)cc3c2C(C)C)cc1OC
band B
7. CNCC(=O)N1CCC(c2ccc3[nH]c(-c4ccc(OC)c(OC)c4)c(C(C)C)c3c2)CC1
band C
8. COc1ccc(-c2[nH]c3ccc(C4CCN(Cc5ccc6cnccc6c5)CC4)cc3c2C)cc1OC
band B

Query block: GET /class?item= COc1ccc(-c2[nH]c3ccc(C4CCN(C(=O)CNC(CO)CO)CC4)cc3c2C(C)C)cc1OC
Result block: band C

Query block: GET /class?item= COc1ccc(-c2[nH]c3ccc(C4CCNCC4(F)F)cc3c2C(C)C)cc1OC (centres unmarked)
Result block: band B

Query block: GET /class?item= COc1ccc(-c2[nH]c3ccc(C4CCN(C5CCCN(CC6CC6)CC5)CC4)cc3c2C)cc1OC (centres unmarked)
Result block: band A

Query block: GET /class?item= COc1ccc(-c2[nH]c3ccc(C4CCN(CC5CCOCC5)CC4)cc3c2C)cc1OC
Result block: band B

Query block: GET /class?item= CCc1c(-c2ccc(OC)c(OC)c2)[nH]c2ccc(C3CCN(C(=O)CN(C)C(C)C)CC3)cc12
Result block: band B

Query block: GET /class?item= COc1ccc(-c2[nH]c3ccc(C4CCN(CC(=O)N5CCCC(CO)C5)CC4)cc3c2C(C)C)cc1OC (centres unmarked)
Result block: band C

Query block: GET /class?item= COc1ccc(-c2[nH]c3ccc(C4CCN(CCCO)CC4)cc3c2C)cc1OC
Result block: band A

Query block: GET /class?item= COc1ccc(-c2[nH]c3ccc(C4CCN(CC(=O)NC5CCN(C(C)C)CC5)CC4)cc3c2C(C)C)cc1OC
Result block: band C

---

# TESTED SYSTEM: human TLR8 (Homo sapiens, UniProt Q9NR97)
# Construct: host or cells: HEK-Blue cells
# PROCEDURE TEXT: TLR8 inhibition reporter assay (HEK-Blue cells, SEAP reporter, R848 stimulation)
# Format: cell-based
# EXPERIMENTAL CONDITIONS: HEK-Blue cells overexpressing human TLR8, R848 15.9 μM
For each record, check the reported IC50: if it is below 300 nM write 1, else write -1.

1. CCc1c(-c2ccc(OC)c(OC)c2)[nH]c2ccc(C3CCN(C4CCN(Cc5cnc(C)[nH]5)CC4)CC3)cc12
-1

Query block: Below 300 nM on IC50? Entry COc1ccc(-c2[nH]c3ccc(C4CCN(C(=O)CN5CCC[C@@H](C(=O)N(C)C(C)C)C5)CC4)cc3c2C(C)C)cc1OC
Result block: 1

Query block: Below 300 nM on IC50? Entry COc1ccc(-c2[nH]c3ccc(C4CCN(C5CCN(CC6CCCCC6)CC5)CC4)cc3c2C)cc1OC
Result block: 1

---

# TESTED SYSTEM: human TLR8 (Homo sapiens, UniProt Q9NR97)
# Sequence (Q9NR97 27-1041): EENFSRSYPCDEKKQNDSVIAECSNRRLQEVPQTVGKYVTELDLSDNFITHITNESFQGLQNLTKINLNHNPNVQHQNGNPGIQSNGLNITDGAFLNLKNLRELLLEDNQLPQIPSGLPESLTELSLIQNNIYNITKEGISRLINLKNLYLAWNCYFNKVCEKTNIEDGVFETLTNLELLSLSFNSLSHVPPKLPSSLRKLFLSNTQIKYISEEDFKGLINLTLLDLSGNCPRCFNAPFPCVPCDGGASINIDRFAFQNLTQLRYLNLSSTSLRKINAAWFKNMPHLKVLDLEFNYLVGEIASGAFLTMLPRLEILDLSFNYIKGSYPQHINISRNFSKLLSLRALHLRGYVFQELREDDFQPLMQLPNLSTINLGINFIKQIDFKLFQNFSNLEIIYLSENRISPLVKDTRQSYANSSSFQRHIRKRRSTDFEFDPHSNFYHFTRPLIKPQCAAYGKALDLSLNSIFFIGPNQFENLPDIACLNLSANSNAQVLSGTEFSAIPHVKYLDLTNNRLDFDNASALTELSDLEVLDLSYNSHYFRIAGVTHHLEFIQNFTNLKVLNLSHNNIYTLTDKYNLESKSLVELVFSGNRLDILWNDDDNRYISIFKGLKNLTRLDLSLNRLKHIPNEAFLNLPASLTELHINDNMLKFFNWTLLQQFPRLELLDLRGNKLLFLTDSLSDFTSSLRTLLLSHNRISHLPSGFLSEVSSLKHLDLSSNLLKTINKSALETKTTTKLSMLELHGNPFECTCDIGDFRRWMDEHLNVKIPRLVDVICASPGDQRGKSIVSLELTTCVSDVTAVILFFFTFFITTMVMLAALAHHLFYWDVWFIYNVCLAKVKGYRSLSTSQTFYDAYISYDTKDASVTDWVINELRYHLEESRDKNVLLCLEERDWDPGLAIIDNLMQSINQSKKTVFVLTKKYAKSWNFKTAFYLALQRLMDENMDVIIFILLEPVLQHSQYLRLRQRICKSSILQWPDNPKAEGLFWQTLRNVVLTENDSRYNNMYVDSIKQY
# PROCEDURE TEXT: TLR8 inhibition reporter assay (HEK-Blue cells, SEAP reporter, R848 stimulation)
# EXPERIMENTAL CONDITIONS: HEK-Blue cells overexpressing human TLR8, R848 15.9 μM
pIC50: −log10 of the molar value.
Label TRUE when pIC50 >= 6; otherwise FALSE.

1) CCc1c(-c2ccc(OC)c(OC)c2)[nH]c2ccc(C3CCN(C(=O)C(C)(C)OC(C)=O)CC3)cc12
FALSE
2) COc1ccc(-c2[nH]c3ccc(C4CCN(C(=O)CN5CCCC(C(=O)NC6CCN(C(C)C)CC6)C5)CC4)cc3c2C(C)C)cc1OC (single isomer, unassigned) [Example 280]
TRUE
3) COc1ccc(-c2[nH]c3ccc(C4CCN(C(=O)NCc5ccco5)CC4)cc3c2CC(F)(F)F)cc1OC
FALSE
4) COc1ccc(-c2[nH]c3ccc(C4CCN(CC(=O)NCC#N)CC4)cc3c2CC(F)(F)F)cc1OC
TRUE
5) COc1ccc(-c2[nH]c3ccc(C4CCN(Cc5[nH]cnc5C)CC4)cc3c2C(C)C)cc1OC
TRUE
6) COc1ccc(-c2[nH]c3ccc(C4CCN(C5CCN(C(C)C)CC5)CC4)cc3c2C)cc1OC
TRUE

As a next step, examine the compound that follows.
Query block: Say whether CNCCN1CCC(c2ccc3[nH]c(-c4ccc(OC)c(OC)c4)c(C#N)c3c2)CC1 shows pIC50 of 6 or more.
Result block: TRUE

Attribution: patent US11180474B2
